System: Escherichia coli TOP10
Experiment: shrunken log2 fold change of peptide-encoding DNA abundance (4.5 h post-induction vs induction); higher = less antimicrobial activity (less host growth inhibition)
Conditions: time post-induction: 4.5 h; library: site-saturation at positions 5, 18, 19, 20
Readings of shrunken log2 fold change for the listed sequences
Write the value as a bare number.

Illustrative cases are given below, each with its answer.
SEQUENCE STRING | ASSAYED TARGET | shrunken log2 fold change
RRIRSRPPRLPRPRPRPPVIPRP | Escherichia coli TOP10 | -0.0672
RRIRSRPPRLPRPRPRPVQIPRP | Escherichia coli TOP10 | 0.111
RRIRLRPPRLPRPRPRPWFAPRP | Escherichia coli TOP10 | -0.112
RRIRMRPPRLPRPRPRPNAQPRP | Escherichia coli TOP10 | 0.43
RRIRYRPPRLPRPRPRPWVGPRP | Escherichia coli TOP10 | -0.352
RRIRYRPPRLPRPRPRPSFWPRP | Escherichia coli TOP10 | -0.122

Request: What does the record list as shrunken log2 fold change for RRIRPRPPRLPRPRPRPECHPRP ?
Response: -0.0419

Request: What does the record list as shrunken log2 fold change for RRIRNRPPRLPRPRPRPNATPRP ?
Response: -0.185

* * *

Test system: Escherichia coli TOP10
Test: shrunken log2 fold change of peptide-encoding DNA abundance (4.5 h post-induction vs induction); higher = less antimicrobial activity (less host growth inhibition)
Conditions: time post-induction: 4.5 h; library: site-saturation at positions 5, 18, 19, 20
Returns Y if the recorded shrunken log2 fold change is greater than or equal to 0.1, and N otherwise.

SEQUENCE STRING | ASSIGNED CLASS
RRIRNRPPRLPRPRPRPLRFPRP | Y
RRIRFRPPRLPRPRPRPPCWPRP | Y
RRIRGRPPRLPRPRPRPVKRPRP | Y
RRIRGRPPRLPRPRPRPEQIPRP | Y
RRIRTRPPRLPRPRPRPPFVPRP | Y
RRIRERPPRLPRPRPRPHPCPRP | N
RRIRIRPPRLPRPRPRPRWSPRP | N
RRIRERPPRLPRPRPRPFCLPRP | N

Request: Is shrunken log2 fold change for RRIRQRPPRLPRPRPRPELMPRP at or above 0.1?
Response: N

Request: Is shrunken log2 fold change for RRIRLRPPRLPRPRPRPEELPRP at or above 0.1?
Response: N

Request: Is shrunken log2 fold change for RRIRIRPPRLPRPRPRPMDFPRP at or above 0.1?
Response: N

* * *

Tested on: Escherichia coli TOP10
Assay: shrunken log2 fold change of peptide-encoding DNA abundance (4.5 h post-induction vs induction); higher = less antimicrobial activity (less host growth inhibition)
Conditions: time post-induction: 4.5 h; library: site-saturation at positions 5, 18, 19, 20
Readings of shrunken log2 fold change for the listed sequences
Write the value as a bare number.

Illustrative cases are given below, each with its answer.
SEQUENCE STRING | QUANTITY MEASURED | NUMBER
RRIRKRPPRLPRPRPRPLTMPRP | shrunken log2 fold change | 0.185
RRIRVRPPRLPRPRPRPDHNPRP | shrunken log2 fold change | -0.488
RRIRWRPPRLPRPRPRPYASPRP | shrunken log2 fold change | -0.121
RRIRMRPPRLPRPRPRPYLEPRP | shrunken log2 fold change | -0.0515
RRIRVRPPRLPRPRPRPMAPPRP | shrunken log2 fold change | 0.0351
RRIRTRPPRLPRPRPRPHYVPRP | shrunken log2 fold change | -0.0402

# evaluate next
Request: What does the record list as shrunken log2 fold change for RRIRFRPPRLPRPRPRPIRQPRP ?
Response: -0.297

* * *

System: Escherichia coli TOP10
Assay: shrunken log2 fold change of peptide-encoding DNA abundance (4.5 h post-induction vs induction); higher = less antimicrobial activity (less host growth inhibition)
Conditions: time post-induction: 4.5 h; library: site-saturation at positions 5, 18, 19, 20
Readings of shrunken log2 fold change for the listed sequences

Illustrative cases are given below, each with its answer.
SEQUENCE STRING | shrunken log2 fold change
RRIRPRPPRLPRPRPRPWYAPRP | -0.107
RRIRHRPPRLPRPRPRPGGCPRP | 0.165
RRIRTRPPRLPRPRPRPLDWPRP | 0.398
RRIRWRPPRLPRPRPRPSRWPRP | 0.209
RRIRNRPPRLPRPRPRPKRFPRP | 0.0343

Request: What does the record list as shrunken log2 fold change for RRIRGRPPRLPRPRPRPFDPPRP ?
Response: 0.14

Request: What does the record list as shrunken log2 fold change for RRIRDRPPRLPRPRPRPTGVPRP ?
Response: -0.0117

Request: What does the record list as shrunken log2 fold change for RRIRSRPPRLPRPRPRPNIYPRP ?
Response: -0.519

* * *

Readings of shrunken log2 fold change for the listed sequences
Test system: Escherichia coli TOP10
Assay: shrunken log2 fold change of peptide-encoding DNA abundance (4.5 h post-induction vs induction); higher = less antimicrobial activity (less host growth inhibition)
Details: time post-induction: 4.5 h; library: site-saturation at positions 5, 18, 19, 20

Illustrative cases are given below, each with its answer.
SEQUENCE STRING | shrunken log2 fold change
RRIRCRPPRLPRPRPRPTWMPRP | -0.18
RRIRLRPPRLPRPRPRPHKNPRP | -0.256
RRIRHRPPRLPRPRPRPKCYPRP | -0.0358

Request: What does the record list as shrunken log2 fold change for RRIRARPPRLPRPRPRPYRGPRP ?
Response: -0.213

Request: What does the record list as shrunken log2 fold change for RRIRERPPRLPRPRPRPECGPRP ?
Response: 0.612

Request: What does the record list as shrunken log2 fold change for RRIRFRPPRLPRPRPRPWPSPRP ?
Response: -0.0611

Request: What does the record list as shrunken log2 fold change for RRIRTRPPRLPRPRPRPEWHPRP ?
Response: 0.0594

Request: What does the record list as shrunken log2 fold change for RRIRGRPPRLPRPRPRPTEIPRP ?
Response: 0.284

Request: What does the record list as shrunken log2 fold change for RRIRDRPPRLPRPRPRPIITPRP ?
Response: -0.0771

Request: What does the record list as shrunken log2 fold change for RRIRYRPPRLPRPRPRPHINPRP ?
Response: -0.806

Request: What does the record list as shrunken log2 fold change for RRIRWRPPRLPRPRPRPFYHPRP ?
Response: -0.0855

Request: What does the record list as shrunken log2 fold change for RRIRERPPRLPRPRPRPHVDPRP ?
Response: -0.00242

Request: What does the record list as shrunken log2 fold change for RRIRGRPPRLPRPRPRPFVYPRP ?
Response: 0.077

Request: What does the record list as shrunken log2 fold change for RRIRWRPPRLPRPRPRPRKTPRP ?
Response: -0.0389

Request: What does the record list as shrunken log2 fold change for RRIRCRPPRLPRPRPRPNQTPRP ?
Response: -0.185

* * *

Tested on: Escherichia coli TOP10
Test: shrunken log2 fold change of peptide-encoding DNA abundance (4.5 h post-induction vs induction); higher = less antimicrobial activity (less host growth inhibition)
Conditions: time post-induction: 4.5 h; library: site-saturation at positions 5, 18, 19, 20
Readings of shrunken log2 fold change for the listed sequences

SEQUENCE STRING | shrunken log2 fold change
RRIRSRPPRLPRPRPRPVGAPRP | 0.538
RRIRIRPPRLPRPRPRPQLGPRP | -0.0971
RRIRPRPPRLPRPRPRPVIMPRP | -0.634
RRIRERPPRLPRPRPRPRNSPRP | -0.639
RRIRDRPPRLPRPRPRPDLGPRP | 0.829
RRIRRRPPRLPRPRPRPVGTPRP | 0.018
RRIRTRPPRLPRPRPRPWDNPRP | -0.0778
RRIRVRPPRLPRPRPRPPRLPRP | 0.294
RRIRPRPPRLPRPRPRPPFSPRP | 0.0978
RRIRRRPPRLPRPRPRPIAMPRP | 0.0579

Request: What does the record list as shrunken log2 fold change for RRIRYRPPRLPRPRPRPAGQPRP ?
Response: 0.00356

Request: What does the record list as shrunken log2 fold change for RRIRRRPPRLPRPRPRPGHAPRP ?
Response: 0.398

Request: What does the record list as shrunken log2 fold change for RRIRARPPRLPRPRPRPCPSPRP ?
Response: 0.0639

Request: What does the record list as shrunken log2 fold change for RRIRGRPPRLPRPRPRPQVTPRP ?
Response: 0.0826

Request: What does the record list as shrunken log2 fold change for RRIRLRPPRLPRPRPRPWGAPRP ?
Response: 0.261

* * *

System: Escherichia coli TOP10;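 also: peptides expressed intracellularly from a pBAD plasmid library in pooled LB shake-flask culture, induced with 0.3% L-arabinose, DNA abundance read by NGS, three biological replicates, DESeq2 with apeglm shrinkage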
Assay: shrunken log2 fold change of peptide-encoding DNA abundance (4.5 h post-induction vs induction); higher = less antimicrobial activity (less host growth inhibition)
Settings: time post-induction: 4.5 h; library: site-saturation at positions 5, 18, 19, 20
Readings of shrunken log2 fold change for the listed sequences
Write the value as a bare number.

SEQUENCE STRING | shrunken log2 fold change
RRIRPRPPRLPRPRPRPICDPRP | -0.0726
RRIRPRPPRLPRPRPRPGEHPRP | -0.133
RRIRIRPPRLPRPRPRPTIPPRP | -0.463
RRIRIRPPRLPRPRPRPDHWPRP | 0.0629
RRIRGRPPRLPRPRPRPIIEPRP | 0.863
RRIRGRPPRLPRPRPRPCWEPRP | -0.000921
RRIRCRPPRLPRPRPRPCAFPRP | -0.311
RRIRFRPPRLPRPRPRPDVYPRP | -0.32
RRIRFRPPRLPRPRPRPCLKPRP | -0.148
RRIRVRPPRLPRPRPRPFGYPRP | -0.425

Request: What does the record list as shrunken log2 fold change for RRIRFRPPRLPRPRPRPFFCPRP ?
Response: -0.206

Request: What does the record list as shrunken log2 fold change for RRIRDRPPRLPRPRPRPNVRPRP ?
Response: -0.275
